Each entry below carries its reported AC50.
Molecular target: UniProtKB P18825
Sequence (P18825 whole entry): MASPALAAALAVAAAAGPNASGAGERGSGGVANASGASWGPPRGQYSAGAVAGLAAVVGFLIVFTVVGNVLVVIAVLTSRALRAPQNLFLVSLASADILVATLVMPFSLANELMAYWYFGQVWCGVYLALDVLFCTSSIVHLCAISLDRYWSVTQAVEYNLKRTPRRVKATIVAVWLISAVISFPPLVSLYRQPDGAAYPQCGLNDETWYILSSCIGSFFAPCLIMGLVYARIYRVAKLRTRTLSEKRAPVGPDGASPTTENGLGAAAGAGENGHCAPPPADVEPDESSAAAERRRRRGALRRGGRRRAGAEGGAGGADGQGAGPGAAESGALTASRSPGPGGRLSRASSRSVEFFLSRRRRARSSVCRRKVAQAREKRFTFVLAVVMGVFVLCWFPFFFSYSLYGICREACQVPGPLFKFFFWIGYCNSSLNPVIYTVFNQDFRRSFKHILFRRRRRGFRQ
Type: functional

Worked cases, answers included:
COc1ccccc1OCC(O)COC(N)=O (centres undefined) : > 10 µM
O=C(Nc1ccccc1)OCC(CN1CCCCC1)OC(=O)Nc1ccccc1 (centres undefined) : > 10 µM
Cc1nc2ccc(CN(C)c3ccc(C(=O)N[C@@H](CCC(=O)O)C(=O)O)s3)cc2c(=O)[nH]1 : > 30 µM

If you can, please state the reported AC50 value of C=C1C[C@@H]2[C@H](CC[C@]3(C)C(=O)CC[C@@H]23)[C@@]2(C)C=CC(=O)C=C12 .
> 10 µM

* * *

Target: Mu-type opioid receptor (Homo sapiens, UniProt P35372); further: assay procedure not described here
Sequence (P35372 whole entry): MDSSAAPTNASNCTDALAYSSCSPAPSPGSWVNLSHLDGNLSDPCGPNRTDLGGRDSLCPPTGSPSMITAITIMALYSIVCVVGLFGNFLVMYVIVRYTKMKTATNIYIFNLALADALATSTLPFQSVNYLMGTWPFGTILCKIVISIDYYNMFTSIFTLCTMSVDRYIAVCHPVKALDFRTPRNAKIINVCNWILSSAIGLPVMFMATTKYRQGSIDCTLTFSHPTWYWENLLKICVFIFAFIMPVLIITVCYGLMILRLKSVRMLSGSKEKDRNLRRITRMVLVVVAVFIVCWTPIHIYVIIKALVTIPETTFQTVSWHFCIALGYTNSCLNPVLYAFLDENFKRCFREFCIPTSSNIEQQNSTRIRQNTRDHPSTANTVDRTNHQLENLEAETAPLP
Each entry below carries its reported AC50.

Nc1nc(-n2cc(C(=O)O)c(=O)c3cc(F)c(N4CC(O)C4)c(Cl)c32)c(F)cc1F : > 30 µM
CCCC[N+]1(C)[C@@H]2C[C@@H](OC(=O)[C@H](CO)c3ccccc3)C[C@H]1[C@@H]1O[C@@H]12 (some centres undefined) : > 30 µM
CN(C)c1ccc(C(=C2C=CC(=[N+](C)C)C=C2)c2ccc(N(C)C)cc2)cc1 : 3.9 µM
CC(O)CO (centres undefined) : > 30 µM
CN1CCN(C(c2ccccc2)c2ccccc2)CC1 : 24.9 µM
CC(=O)Oc1c(C)cc(OCC(O)CNC(C)C)c(C)c1C (centres undefined) : > 30 µM
CCc1ccc(CCOc2ccc(CC3SC(=O)NC3=O)cc2)nc1 (centres undefined) : > 30 µM
CC(C(=O)O)c1ccc(N2CC=CC2)c(Cl)c1 (centres undefined) : > 30 µM

Query AC50 on Mu-type opioid receptor (Homo sapiens, UniProt P35372) for CC(C)=CCC1C(=O)N(c2ccccc2)N(c2ccccc2)C1=O
> 30 µM

* * *

Target: B2 bradykinin receptor (Homo sapiens, UniProt P30411); further: assay procedure not described here
Sequence (P30411 whole entry): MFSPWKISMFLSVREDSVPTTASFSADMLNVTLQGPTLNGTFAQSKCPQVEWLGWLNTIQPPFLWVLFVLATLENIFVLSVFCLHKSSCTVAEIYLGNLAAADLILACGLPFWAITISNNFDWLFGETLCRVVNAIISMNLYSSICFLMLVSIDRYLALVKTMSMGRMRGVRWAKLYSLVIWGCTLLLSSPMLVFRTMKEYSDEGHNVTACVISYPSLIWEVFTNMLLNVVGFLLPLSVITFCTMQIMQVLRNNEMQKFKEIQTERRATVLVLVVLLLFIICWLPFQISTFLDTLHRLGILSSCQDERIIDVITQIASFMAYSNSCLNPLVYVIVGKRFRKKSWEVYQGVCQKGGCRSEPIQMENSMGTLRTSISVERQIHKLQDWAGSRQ
Each entry below carries its reported AC50.

C[C@@H]1O[C@@H]1P(=O)(O)O : > 10 µM
CCc1nn(CCCN2CCN(c3cccc(Cl)c3)CC2)c(=O)n1CCOc1ccccc1 : > 30 µM
CC(C)C(=O)Nc1ccc([N+](=O)[O-])c(C(F)(F)F)c1 [FLUTAMIDE] : > 30 µM

Query AC50 on B2 bradykinin receptor (Homo sapiens, UniProt P30411) for CC(C)(C(=O)c1cccnc1)c1cccnc1
> 10 µM

Query AC50 on B2 bradykinin receptor (Homo sapiens, UniProt P30411) for CCCCCCCCCCCC[N+](C)(C)CCOc1ccccc1
> 30 µM

Query AC50 on B2 bradykinin receptor (Homo sapiens, UniProt P30411) for CCCCCCCCOc1ccccc1C(=O)Nc1ccc(C(=O)OCC[N+](C)(CC)CC)cc1 [OTILONIUM BROMIDE]
> 30 µM

Query AC50 on B2 bradykinin receptor (Homo sapiens, UniProt P30411) for CC(N)Cc1ccccc1 (centres undefined)
> 30 µM

Query AC50 on B2 bradykinin receptor (Homo sapiens, UniProt P30411) for CCCS(=O)(=O)Nc1ccc(F)c(C(=O)c2c[nH]c3ncc(-c4ccc(Cl)cc4)cc23)c1F
> 30 µM

Query AC50 on B2 bradykinin receptor (Homo sapiens, UniProt P30411) for COc1c(C)c2c(c(O)c1C/C=C(\C)CCC(=O)OCCN1CCOCC1)C(=O)OC2 [MYCOPHENOLATE MOFETIL]
> 30 µM

Values were extracted from ChEMBL document CHEMBL5291721.
